target: Adenosine receptor A2a (Rattus norvegicus)
Sequence (P30543 whole entry): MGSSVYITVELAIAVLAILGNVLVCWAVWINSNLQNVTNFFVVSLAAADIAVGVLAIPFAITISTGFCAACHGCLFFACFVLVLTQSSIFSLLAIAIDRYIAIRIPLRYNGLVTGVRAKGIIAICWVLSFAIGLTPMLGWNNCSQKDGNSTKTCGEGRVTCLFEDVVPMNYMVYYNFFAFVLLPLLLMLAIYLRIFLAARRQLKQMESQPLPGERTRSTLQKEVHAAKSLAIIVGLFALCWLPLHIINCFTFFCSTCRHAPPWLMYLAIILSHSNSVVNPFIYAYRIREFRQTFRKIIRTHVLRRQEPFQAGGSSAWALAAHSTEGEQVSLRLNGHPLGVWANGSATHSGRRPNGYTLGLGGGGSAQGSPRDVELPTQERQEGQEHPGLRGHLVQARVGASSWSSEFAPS
value-type: pKi
Bear in mind: pKi is minus log10 of a mol/L concentration; give just that figure.

Example compounds with recorded pKi:
{"record-smiles": "CCOC(=O)c1c(CC)c(C(=O)SCC)c(CC)[n+](C)c1-c1ccccc1", "pKi": 4.94}
{"record-smiles": "CCCCc1c(C(=O)SCC)c(CC)c(C(=O)OCC)c(-c2ccccc2)[n+]1C", "pKi": 5.22}

Continue with the next compound.
# pKi of CCCOC(=O)c1c(CC)c(C(=O)SCC)c(CC)[n+](C)c1-c1ccccc1 = 4.73

====

target: Adenosine receptor A1 (Rattus norvegicus, UniProt P25099)
Sequence (P25099 whole entry): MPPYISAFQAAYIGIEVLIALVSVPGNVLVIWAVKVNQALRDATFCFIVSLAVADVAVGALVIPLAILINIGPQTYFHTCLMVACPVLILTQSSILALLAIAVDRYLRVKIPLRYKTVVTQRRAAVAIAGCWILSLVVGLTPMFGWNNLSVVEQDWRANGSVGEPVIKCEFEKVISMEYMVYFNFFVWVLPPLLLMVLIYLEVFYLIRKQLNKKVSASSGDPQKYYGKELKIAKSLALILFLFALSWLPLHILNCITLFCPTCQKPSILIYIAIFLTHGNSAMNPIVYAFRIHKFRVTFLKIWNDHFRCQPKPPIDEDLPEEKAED
value-type: pKi
Bear in mind: pKi is minus log10 of a mol/L concentration; give just that figure.

{"record-smiles": "CCC[n+]1c(CC)c(C(=O)SCC)c(CC)c(C(=O)OCC)c1-c1ccccc1", "measured-target": "Adenosine receptor A1 (Rattus norvegicus, UniProt P25099)", "pKi": 4.11}
{"record-smiles": "CCOC(=O)c1c(CCN2C(=O)c3ccccc3C2=O)c(C(=O)SCC)c(CC)[n+](C)c1-c1ccccc1", "measured-target": "Adenosine receptor A1 (Rattus norvegicus, UniProt P25099)", "pKi": 5.82}

Item: CCOC(=O)c1c(CC)c(C(=O)SCC)c(CC)[n+](C)c1-c1ccccc1 | System: Adenosine receptor A1 (Rattus norvegicus, UniProt P25099) | pKi: 4.50

====

Displacement values by entry
molecular target: Adenosine receptor A1 (Rattus norvegicus); experiment: Displacement of [3H]R-PIA from Adenosine A1 receptor from rat brain membranes at 10^-4M; assay type: cell membranes; conditions: Membrane
Quick note: give the figure in %, leave out the unit.

Example compounds with recorded Displacement:
{"record-smiles": "CCCOC(=O)c1c(CCSC(C)=O)c(C(=O)SCC)c(CC)[n+](C)c1-c1ccccc1", "Displacement [%]": 45}
{"record-smiles": "CCSC(=O)c1c(CC)c(C(=O)OCCF)c(-c2ccccc2)[n+](C)c1CC", "Displacement [%]": 30}

Continue with the next compound.
Item: CCOC(=O)c1c(CC)c(C(=O)SCC)c(C)[n+](C)c1-c1ccccc1 | System: Adenosine receptor A1 (Rattus norvegicus) | Displacement: 22

====

biological target: Adenosine receptor A1 (Rattus norvegicus) (UniProt P25099); assay: Displacement of [3H]R-PIA from Adenosine A1 receptor from rat brain membranes at 10^-4M; type: cell membranes; conditions: Membrane
Sequence (P25099 whole entry): as above
value-type: Displacement

{"record-smiles": "CCCOC(=O)c1c(CCC)c(C(=O)SCC)c(CC)[n+](C)c1-c1ccccc1", "endpoint-result": "< 10%"}
{"record-smiles": "CCCOC(=O)c1c(CCC)c(C(=O)SCCCF)c(CC)[n+](C)c1-c1ccccc1", "endpoint-result": "< 10%"}

Continue with the next compound.
# Displacement of CCCOC(=O)c1c(CC)c(C(=O)SCC)c(CC)[n+](C)c1-c1ccccc1 = < 10%
